Experimental Target: Fuc(a1-3)[Gal3S(b1-4)]GlcNAc
Protocol Details: glycan array binding signal (z-score within array); higher = stronger binding
Condition Details: glycan notation: IUPAC condensed, linker removed
The entries come from a sample that favours the strongest signals as a whole.
// values below are reported glycan array binding signal (z-score)
Reply briefly: the number, and no unit.

The cases that follow already have their glycan array binding signal (z-score) on record.
Binder | glycan array binding signal (z-score)
AAL (Aleuria aurantia), P18891 (protein) PTEFLYTSKIAAISWAATGGRQQRVYFQDLNGKIREAQRGGDNPWTGGSSQNVIGEAKLFSPLAAVTWKSAQGIQIRVYCVNKDNILSEFVYDGSKWITGQLGSVGVKVGSNSKLAALQWGGSESAPPNIRVYYQKSNGSGSSIHEYVWSGKWTAGASFGSTVPGTGIGATAIGPGRLRIYYQATDNKIREHCWDSNSWYVGGFSASASAGVSIAAISWGSTPNIRVYWQKGREELYEAAYGGSWNTPGQIKDASRPTPSLPDTFIAANSSGNIDISVFFQASGVSLQQWQWISGKGWSIGAVVPTGTPAGW | 1.76
RNase 1 (Homo sapiens) (protein) KESRAKKFQRQHMDSDSSPSSSSTYCNQMMRRRNMTQGRCKPVNTFVHEPLVDVQNVCFQEKVTCKNGQGNCYKSNSSMHITDCRLTNGSRYPNCAYRTSPKERHIIVACEGSPYVPVHFDASVEDST | -0.168
MSMEG3662-2a (Mycobacterium smegmatis), A0QYH7_MYCS2 (protein) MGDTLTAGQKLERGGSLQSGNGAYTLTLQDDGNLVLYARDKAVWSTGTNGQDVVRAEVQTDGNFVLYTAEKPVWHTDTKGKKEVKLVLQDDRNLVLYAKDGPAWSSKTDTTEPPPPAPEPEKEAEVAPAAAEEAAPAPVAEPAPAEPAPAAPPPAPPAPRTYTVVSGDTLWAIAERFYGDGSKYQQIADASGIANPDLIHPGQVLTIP | -0.028
AT1G73650(15) (Arabidopsis thaliana), F4HRY1 (protein) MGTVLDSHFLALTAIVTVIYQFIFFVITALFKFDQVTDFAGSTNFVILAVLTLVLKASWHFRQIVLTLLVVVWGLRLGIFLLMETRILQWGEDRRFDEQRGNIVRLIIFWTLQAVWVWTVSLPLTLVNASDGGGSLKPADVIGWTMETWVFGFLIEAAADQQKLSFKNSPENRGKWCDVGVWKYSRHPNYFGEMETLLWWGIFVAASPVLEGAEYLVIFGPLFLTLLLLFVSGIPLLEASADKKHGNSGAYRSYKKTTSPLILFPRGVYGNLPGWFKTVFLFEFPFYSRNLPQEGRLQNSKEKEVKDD | 3.17
MAL-II (Maackia amurensis), P93248 (protein) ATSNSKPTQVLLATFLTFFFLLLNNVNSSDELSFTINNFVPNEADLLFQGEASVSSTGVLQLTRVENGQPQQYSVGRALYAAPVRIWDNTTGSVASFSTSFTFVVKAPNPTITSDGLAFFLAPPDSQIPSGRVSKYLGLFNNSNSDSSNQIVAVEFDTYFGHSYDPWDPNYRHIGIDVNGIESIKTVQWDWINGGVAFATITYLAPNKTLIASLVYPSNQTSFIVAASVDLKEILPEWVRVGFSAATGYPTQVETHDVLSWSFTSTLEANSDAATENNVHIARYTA | -0.195
SSL (Salmo salar) (protein) TGAKGAEEGVVPAETRNQCPTGWFQFGSRCFMFVETARSWPLAERHCVSLGANLASVHSSADDQFLQAIAGCKTGAFSTTWIGGFDAVQDRLWFWSDGSEFDYQNWAKGEPNNSGGREPCIVINWGDEYRWNDIKCGNSFPSVCSKRICEIQKN | -0.17
OGAN (protein) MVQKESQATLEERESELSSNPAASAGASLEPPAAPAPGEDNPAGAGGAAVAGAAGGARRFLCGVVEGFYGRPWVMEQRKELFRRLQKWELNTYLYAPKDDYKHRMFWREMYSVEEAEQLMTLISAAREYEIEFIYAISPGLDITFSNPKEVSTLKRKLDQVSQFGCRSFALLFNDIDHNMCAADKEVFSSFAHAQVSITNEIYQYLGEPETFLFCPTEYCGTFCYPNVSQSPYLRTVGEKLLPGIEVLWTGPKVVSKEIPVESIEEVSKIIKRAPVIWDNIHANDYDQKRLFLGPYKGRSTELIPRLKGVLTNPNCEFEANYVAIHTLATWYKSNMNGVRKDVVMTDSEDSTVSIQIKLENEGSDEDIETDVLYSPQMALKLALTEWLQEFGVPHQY | 0.055
LysMD3 (Homo sapiens), Q7Z3D4 (protein) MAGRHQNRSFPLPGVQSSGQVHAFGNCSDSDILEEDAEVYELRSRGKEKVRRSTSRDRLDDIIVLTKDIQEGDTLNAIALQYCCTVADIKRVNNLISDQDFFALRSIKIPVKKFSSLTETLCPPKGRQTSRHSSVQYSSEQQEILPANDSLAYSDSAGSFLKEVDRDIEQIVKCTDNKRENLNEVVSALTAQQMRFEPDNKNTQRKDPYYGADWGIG | -0.081
PpFlo2 (Pichia pastoris) (protein) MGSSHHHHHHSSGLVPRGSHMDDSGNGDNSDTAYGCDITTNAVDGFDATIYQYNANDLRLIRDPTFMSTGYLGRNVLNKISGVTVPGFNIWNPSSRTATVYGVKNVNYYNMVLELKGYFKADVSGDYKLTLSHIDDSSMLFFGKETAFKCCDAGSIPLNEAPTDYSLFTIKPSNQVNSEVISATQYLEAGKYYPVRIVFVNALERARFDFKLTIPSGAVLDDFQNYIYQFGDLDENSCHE | -0.313
rMpL (Macrolepiota procera) (protein) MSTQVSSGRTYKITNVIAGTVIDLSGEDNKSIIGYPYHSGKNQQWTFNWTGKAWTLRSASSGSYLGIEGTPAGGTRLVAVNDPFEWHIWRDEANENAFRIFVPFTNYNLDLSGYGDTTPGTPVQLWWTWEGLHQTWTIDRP | -0.253

// next item, glycan array binding signal (z-score) requested
Prompt: I have this binder here, Pp2-A2 (Arabidopsis thaliana), Q07098 (protein) MPSNGDLDRQIEQLMECKPLSEADVRTLCDQARAILVEEYNVQPVKCPVTVCGDIHGQFYDLIELFRIGGNAPDTNYLFMGDYVDRGYYSVETVSLLVALKVRYRDRLTILRGNHESRQITQVYGFYDECLRKYGNANVWKYFTDLFDYLPLTALIESQVFCLHGGLSPSLDTLDNIRSLDRIQEVPHEGPMCDLLWSDPDDRCGWGISPRGAGYTFGQDIAAQFNHNNGLSLISRAHQLVMEGFNWCQDKNVVTVFSAPNYCYRCGNMAAILEIGENMEQNFLQFDPAPRQVEPDTTRKTPDYFL , and I need its recorded glycan array binding signal (z-score).
Response: -0.461

Cited source: the supplement of paper PMC8728848
